test system: GATA1; test: GATA Assay: GATA Translucent Reporter Vector luciferase assay in transfected HepG2 cells; type: cell-based, Human; conditions: 5μ compound, luciferase normalized to total protein
Assignment: determine reported GATA1 Activation (Fold Change Vs Control) for the given compounds.
Please state the figure in Fold Change Vs Control; there is no need to write the unit.

Qu. Query: GATA1 Activation (Fold Change Vs Control); subject: CC(=O)c1ccc(-c2nc3c(c(Nc4ccc(C5(C(=O)O)CCC5)cc4)n2)CCC3)cc1 [Example 9]
Ans. 2.90

Qu. Follow-up item: Cn1cc(-c2nc3c(c(Nc4ccc(C5(C(=O)O)CCC5)cc4)n2)CCC3)cn1 [Example 7]
Ans. 1.79

Qu. Please answer likewise for CC(C)(C)Nc1nc(Nc2ccc(C3(C(=O)O)CCCC3)cc2)nc2c1CCC2 [Example 10]
Ans. 2.07

Qu. Similarly, O=C(O)C1(c2ccc(Nc3nc(Nc4cccc(F)c4)nc4c3CCC4)cc2)CCC1 [Example 12] ?
Ans. 3.22

Qu. Cool, now O=C(O)C1(c2ccc(Nc3nc(N4CCOCC4)nc4c3CCC4)cc2)CCC1 [Example 4]
Ans. 2.45

Qu. Continue with O=C(O)C1(c2ccc(Nc3nc(NC4CCCC4)nc4c3CCC4)cc2)CCC1 [Example 13]
Ans. 1.94

---

test system: GATA1; assay: GATA Assay: GATA Translucent Reporter Vector luciferase assay in transfected HepG2 cells; assay type: cell-based, Human; conditions: 10μ compound, luciferase normalized to total protein
ENDPOINT LABEL: GATA1 Activation (Fold Change Vs Control)
Number only, in Fold Change Vs Control; omit the unit.

Qu. Data request, read-out GATA1 Activation (Fold Change Vs Control), for Cn1cc(-c2nc3c(c(Nc4ccc(C5(C(=O)O)CCC5)cc4)n2)CCC3)cn1
Ans. 2.09

Qu. Next record, please: O=C(O)C1(c2ccc(Nc3nc(N4CCOCC4)nc4c3CCC4)cc2)CCC1
Ans. 3.45

Qu. Then what about the compound CC(C)(C)Nc1nc(Nc2ccc(C3(C(=O)O)CCCC3)cc2)nc2c1CCC2 ?
Ans. 2.43

Qu. O=C(O)C1(c2ccc(Nc3nc(NC4CCCC4)nc4c3CCC4)cc2)CCC1 ?
Ans. 1.67

Qu. Also O=C(O)C1(c2ccc(Nc3nc(Nc4cccc(F)c4)nc4c3CCC4)cc2)CCC1 ?
Ans. 3.38

Qu. Queued: CC(=O)c1ccc(-c2nc3c(c(Nc4ccc(C5(C(=O)O)CCC5)cc4)n2)CCC3)cc1
Ans. 3.50
